- Subject of test: human PD-1 stably expressed on Jurkat/IL-2 reporter cells (Jurkat/PD-1 cells) (human, UniProt Q15116 25-288)
- Sequence (Q15116 25-288): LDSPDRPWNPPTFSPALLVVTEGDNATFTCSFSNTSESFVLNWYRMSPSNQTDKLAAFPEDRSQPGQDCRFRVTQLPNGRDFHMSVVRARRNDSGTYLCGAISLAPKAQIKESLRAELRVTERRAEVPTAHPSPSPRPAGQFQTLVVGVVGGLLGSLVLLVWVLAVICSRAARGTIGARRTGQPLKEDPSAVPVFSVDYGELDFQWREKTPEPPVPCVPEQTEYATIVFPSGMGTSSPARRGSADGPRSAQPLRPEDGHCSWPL
- Protocol text: flow cytometry, Jurkat/PD-1 cells
Kindly state MFI at 20 nM conc. for each of the entries shown.

Some solved cases for reference:
* variant PD-L1 ECD-Fc K28E, N45D, W149R, S158G, P198T (Fc fusion, not shown: a dimerising Fc or GST) FTVTVPKDLYVVEYGSNMTIECKFPVEEQLDLAALIVYWEMEDKDIIQFVHGEEDLKVQHSSYRQRARLLKDQLSLGNAALQITDVKLQDAGVYRCMISYGGADYKRITVKVNAPYNKINQRILVVDPVTSEHELTCQAEGYPKAEVIRTSSDHQVLGGKTTTTNSKREEKLFNVTSTLRINTTTNEIFYCTFRRLDTEENHTAELVIPELPLAHPPNER | 691 MFI
* variant PD-L1 ECD-Fc I98T, F173Y, L196S (Fc fusion, not shown: a dimerising Fc or GST) FTVTVPKDLYVVEYGSNMTIECKFPVEKQLDLAALIVYWEMEDKNIIQFVHGEEDLKVQHSSYRQRARLLKDQLSLGNAALQITDVKLQDAGVYRCMTSYGGADYKRITVKVNAPYNKINQRILVVDPVTSEHELTCQAEGYPKAEVIWTSSDHQVLSGKTTTTNSKREEKLYNVTSTLRINTTTNEIFYCTFRRSDPEENHTAELVIPELPLAHPPNER | 236 MFI

Let us examine a further case.
Notebook: variant PD-L1 ECD-Fc N45D, T183A, T192S, R194G (Fc fusion, not shown: a dimerising Fc or GST) FTVTVPKDLYVVEYGSNMTIECKFPVEKQLDLAALIVYWEMEDKDIIQFVHGEEDLKVQHSSYRQRARLLKDQLSLGNAALQITDVKLQDAGVYRCMISYGGADYKRITVKVNAPYNKINQRILVVDPVTSEHELTCQAEGYPKAEVIWTSSDHQVLSGKTTTTNSKREEKLFNVTSTLRINATTNEIFYCSFGRLDPEENHTAELVIPELPLAHPPNER , MFI at 20 nM conc. read as 1350 MFI

The origin of these recorded values is patent US20260062456A1.
